molecular target: tubulin (Bos taurus, UniProt P81947+Q6B856); construct: Tubulin devoid of microtubule-associated proteins (MAPs) was purified from bovine brain; from tissue; host or cells: bovine brain; experiment: Tubulin binding assay (quenching of intrinsic tryptophan fluorescence); set-up: species or system bovine; conditions: calculated from KD, ΔGbind = RT ln KD, T = 298 K
Sequence (Q6B856 whole entry): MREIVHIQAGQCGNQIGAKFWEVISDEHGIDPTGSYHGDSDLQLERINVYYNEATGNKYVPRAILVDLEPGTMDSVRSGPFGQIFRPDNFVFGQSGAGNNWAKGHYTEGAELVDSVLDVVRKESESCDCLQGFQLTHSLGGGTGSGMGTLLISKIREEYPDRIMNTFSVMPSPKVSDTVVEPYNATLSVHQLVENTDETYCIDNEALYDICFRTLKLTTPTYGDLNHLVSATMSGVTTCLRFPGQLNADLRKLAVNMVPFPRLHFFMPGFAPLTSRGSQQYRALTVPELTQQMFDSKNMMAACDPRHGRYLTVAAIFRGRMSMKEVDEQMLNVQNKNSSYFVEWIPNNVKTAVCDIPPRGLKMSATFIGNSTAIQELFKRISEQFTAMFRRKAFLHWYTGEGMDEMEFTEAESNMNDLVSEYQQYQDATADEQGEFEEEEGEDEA
Sequence (P81947 whole entry): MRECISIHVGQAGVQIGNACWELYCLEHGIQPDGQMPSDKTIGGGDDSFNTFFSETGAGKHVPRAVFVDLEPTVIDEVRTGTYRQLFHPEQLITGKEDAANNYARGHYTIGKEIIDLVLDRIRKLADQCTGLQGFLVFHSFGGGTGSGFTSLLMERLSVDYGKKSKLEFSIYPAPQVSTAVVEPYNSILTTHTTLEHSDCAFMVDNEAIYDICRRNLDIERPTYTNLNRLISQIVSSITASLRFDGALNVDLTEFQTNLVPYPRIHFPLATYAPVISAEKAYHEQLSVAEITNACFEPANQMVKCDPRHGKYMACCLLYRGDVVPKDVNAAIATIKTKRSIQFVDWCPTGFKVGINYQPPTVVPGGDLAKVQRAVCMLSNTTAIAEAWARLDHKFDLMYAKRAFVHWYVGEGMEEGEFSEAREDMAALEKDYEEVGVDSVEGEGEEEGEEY

{"compound": "COC(=O)CN1CCc2cc3c(c(OC)c2[C@@H]1[C@H]1OC(=O)c2c1ccc(OC)c2OC)OCO3 [Compound 6i]", "units": "kcal/mol", "Experimental ΔGbind": -5.602}
{"compound": "COc1ccc2c(c1OC)C(=O)O[C@@H]2[C@H]1c2c(cc3c(c2OC)OCO3)CCN1Cc1ccc([N+](=O)[O-])cc1 [Compound 6c]", "units": "kcal/mol", "Experimental ΔGbind": -5.518}
{"compound": "CCOC(=O)CN1CCc2cc3c(c(OC)c2[C@@H]1[C@H]1OC(=O)c2c1ccc(OC)c2OC)OCO3 [Compound 6j]", "units": "kcal/mol", "Experimental ΔGbind": -4.973}
{"compound": "COc1ccc2c(c1OC)C(=O)O[C@@H]2[C@H]1c2c(cc3c(c2OC)OCO3)CCN1Cc1cccc(Br)c1 [Compound 6f]", "units": "kcal/mol", "Experimental ΔGbind": -6.036}
{"compound": "COc1ccc2c(c1OC)C(=O)O[C@@H]2[C@@H]1NCCc2cc3c(c(OC)c21)OCO3 [Compound 5a]", "units": "kcal/mol", "Experimental ΔGbind": -5.691}

====

system: human breast epithelial cell line (MCF-7); assay: In vitro cell proliferation assay (SRB), MCF-7; format: cell-based; settings: MCF7, 72 h, mean ± S.D.
Threshold-based label: IC50 under 40 µM gives label 1, IC50 not under 40 µM gives label 0.

{"mol.smiles": "COc1ccc2c(c1OC)C(=O)O[C@@H]2[C@H]1c2c(cc3c(c2OC)OCO3)CCN1Cc1ccccc1", "class.assignment": "label 1"}
{"mol.smiles": "COc1cccc(CN2CCc3cc4c(c(OC)c3[C@@H]2[C@H]2OC(=O)c3c2ccc(OC)c3OC)OCO4)c1", "class.assignment": "label 0"}
{"mol.smiles": "COc1ccc2c(c1OC)C(=O)O[C@@H]2[C@H]1c2c(cc3c(c2OC)OCO3)CCN1Cc1cccc(Br)c1", "class.assignment": "label 1"}
{"mol.smiles": "COc1ccc(CN2CCc3cc4c(c(OC)c3[C@@H]2[C@H]2OC(=O)c3c2ccc(OC)c3OC)OCO4)cc1", "class.assignment": "label 1"}
{"mol.smiles": "COc1ccc2c(c1OC)C(=O)O[C@@H]2[C@H]1c2c(cc3c(c2OC)OCO3)CCN1Cc1ccc([N+](=O)[O-])cc1", "class.assignment": "label 1"}
{"mol.smiles": "COC(=O)CN1CCc2cc3c(c(OC)c2[C@@H]1[C@H]1OC(=O)c2c1ccc(OC)c2OC)OCO3", "class.assignment": "label 1"}
{"mol.smiles": "COc1ccc2c(c1OC)C(=O)O[C@@H]2[C@H]1c2c(cc3c(c2OC)OCO3)CCN1Cc1ccc(Br)cc1", "class.assignment": "label 1"}
{"mol.smiles": "CCOC(=O)CN1CCc2cc3c(c(OC)c2[C@@H]1[C@H]1OC(=O)c2c1ccc(OC)c2OC)OCO3", "class.assignment": "label 0"}
{"mol.smiles": "COc1ccc2c(c1OC)C(=O)O[C@@H]2[C@@H]1NCCc2cc3c(c(OC)c21)OCO3", "class.assignment": "label 1"}
{"mol.smiles": "COc1ccc2c(c1OC)C(=O)O[C@@H]2[C@H]1c2c(cc3c(c2OC)OCO3)CCN1Cc1cccc(Cl)c1", "class.assignment": "label 1"}
{"mol.smiles": "COc1ccc2c(c1OC)C(=O)O[C@@H]2[C@H]1c2c(cc3c(c2OC)OCO3)CCN1CC(C)=O", "class.assignment": "label 1"}
{"mol.smiles": "COc1ccc2c(c1OC)C(=O)O[C@@H]2[C@H]1c2c(cc3c(c2OC)OCO3)CCN1C", "class.assignment": "label 0"}
